- tested on: soluble guanylate cyclase (human GUCYA3 and GUCYB3) overexpressed in CHO cells (Homo sapiens (Human), UniProt Q02153)
- Sequence (Q02108 whole entry partner): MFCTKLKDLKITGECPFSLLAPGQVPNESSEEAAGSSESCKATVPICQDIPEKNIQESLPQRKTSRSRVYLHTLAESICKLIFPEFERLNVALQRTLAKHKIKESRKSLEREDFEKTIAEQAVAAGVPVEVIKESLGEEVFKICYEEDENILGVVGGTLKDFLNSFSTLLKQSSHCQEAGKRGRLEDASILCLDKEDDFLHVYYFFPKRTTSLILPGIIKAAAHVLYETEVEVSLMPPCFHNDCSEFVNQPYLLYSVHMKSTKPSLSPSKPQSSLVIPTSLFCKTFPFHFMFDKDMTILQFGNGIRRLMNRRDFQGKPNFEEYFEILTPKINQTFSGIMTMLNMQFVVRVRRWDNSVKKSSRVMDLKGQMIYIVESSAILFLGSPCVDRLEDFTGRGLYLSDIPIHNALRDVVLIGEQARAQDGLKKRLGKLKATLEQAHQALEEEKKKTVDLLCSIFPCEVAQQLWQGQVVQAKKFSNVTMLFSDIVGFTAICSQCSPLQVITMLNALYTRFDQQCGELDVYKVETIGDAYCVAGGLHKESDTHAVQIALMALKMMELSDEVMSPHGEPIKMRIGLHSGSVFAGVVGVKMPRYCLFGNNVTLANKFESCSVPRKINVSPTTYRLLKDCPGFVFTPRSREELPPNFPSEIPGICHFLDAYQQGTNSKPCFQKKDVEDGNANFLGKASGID
- Sequence (Q02153 whole entry): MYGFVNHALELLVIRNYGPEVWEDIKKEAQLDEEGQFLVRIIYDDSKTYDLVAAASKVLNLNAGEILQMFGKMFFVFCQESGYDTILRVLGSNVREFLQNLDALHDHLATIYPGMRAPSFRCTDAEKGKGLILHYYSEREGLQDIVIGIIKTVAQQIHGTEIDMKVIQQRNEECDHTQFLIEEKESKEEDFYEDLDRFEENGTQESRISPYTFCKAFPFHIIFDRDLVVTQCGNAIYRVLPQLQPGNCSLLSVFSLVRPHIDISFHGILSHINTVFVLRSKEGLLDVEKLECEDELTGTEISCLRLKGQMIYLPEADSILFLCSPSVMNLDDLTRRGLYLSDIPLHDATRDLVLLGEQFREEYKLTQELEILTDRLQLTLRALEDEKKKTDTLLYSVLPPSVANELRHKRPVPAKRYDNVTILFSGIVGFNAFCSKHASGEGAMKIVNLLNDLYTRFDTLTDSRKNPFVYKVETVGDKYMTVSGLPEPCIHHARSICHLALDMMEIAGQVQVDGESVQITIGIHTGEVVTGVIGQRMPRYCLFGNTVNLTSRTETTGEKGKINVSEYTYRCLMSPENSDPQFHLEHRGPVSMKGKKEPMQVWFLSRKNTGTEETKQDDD
- assay overview: CHO cellular assay (cGMP production, Cisbio cGMP HTRF kit)
- condition details: CHO GUCY clone 8E10, cGMP production, assay buffer with 1 mM IBMX and 20 uM ODQ, 1 h room temperature; minimum quantification limit 0.5 nM (listed 0.5 nM means ≤0.5 nM)
Provide the recorded EC50 for the entries that follow.

Provide EC50 for all items below, preserving their order.
1. CCc1cc(CN2CC(C)c3cccc(-c4cccc(-n5ncc(C(=O)O)c5CC)n4)c32)ccc1C1CCN(C(=O)C2CC2)CC1 (single isomer, unassigned; (-)) [(−)-20-1]
2. CCc1cc(O[C@H]2CCc3cccc(-c4cccc(-n5ncc(C(=O)O)c5CC)n4)c32)ccc1C1CCN(C(=O)C(C)CCO)CC1 (single isomer, unassigned) [Example 32b]
3. Cc1cc(C2CCN(C(=O)C3CC3)CC2)ccc1CN1CCc2cccc(-c3cccc(-n4ncc(C(=O)O)c4C)n3)c21

Response given:
["≤ 0.5 nM", "≤ 0.5 nM", "≤ 0.5 nM"]

Provide EC50 for all items below, preserving their order.
1. O=C(O)c1cnn(-c2cccc(-c3cccc4c3C(Oc3ccc(C5CCN(C(=O)C6CC6)CC5)cc3C(F)(F)F)CC4)n2)c1C(F)(F)F (single isomer, unassigned; enantiomer-2) [61. b). (enantiomer-2)]
2. CCc1cc(CN2CC(C)c3cccc(-c4cccc(-n5ncc(C(=O)O)c5C)n4)c32)ccc1C1CCN(C(=O)C2CC2)CC1 (single isomer, unassigned; (-)) [(−)-20-3]

Response given:
2 nM
≤ 0.5 nM
